# Test system: Human immunodeficiency virus 1
# protocolNotes: Anti-HIV activity against HIV-1 3B strain infected in human MT4 cells assessed as inhibition of virus-induced cell death preincubated with compound for 1 hrs followed by viral infection and measured after 4 days by MTT assay
# Assay type: functional, organism-based
# conditionSummary: Human immunodeficiency virus 1, 3B
Starred links: 1 amine or outer side, 2 acyl side, 3 side chain; linkers in the order of their positions; H or OH if unused. Positions of bridges follow the written chain, without caps; N, C: chain ends. Non-standard residues stand in square brackets, D forms with d. Residues, ends and D or L forms follow the SMILES beside them. NHCH2CH2SCH2CO = O=C(CSCCN[*:1])[*:2]; NMeF = CN[C@@H](Cc1ccccc1)C(=O)O; hCha = N[C@@H](CCC1CCCCC1)C(=O)O; Pen = CC(C)(S)[C@H](N)C(=O)O; αMeP = C[C@@]1(C(=O)O)CCCN1
measuredParameter: pEC50
# pEC50 = -log10(concentration in molar units)

Worked examples follow.
{"columns": ["compound", "experimentalSystem", "pEC50"],
 "data": [
  ["CC(C)C[C@@H]1NC(=O)[C@H](C(C)C)NC(=O)[C@]2(C)CCCN2C(=O)[C@H](C(C)C)NC(=O)[C@H](Cc2ccccc2)NC(=O)CSCCNC(=O)[C@H](C)NC(=O)[C@H](Cc2ccccc2)N(C)C(=O)[C@H](CC(C)C)NC(=O)[C@H](CCC2CCCCC2)NC1=O (cyclo(A[NHCH2CH2SCH2CO]FV[αMeP]VL[hCha]L[NMeF]))", "Human immunodeficiency virus 1", 7.62],
  ["CC(C)C[C@@H]1NC(=O)[C@H](C(C)C)NC(=O)[C@@H]2CCCN2C(=O)[C@H](C(C)C)NC(=O)[C@H](Cc2ccccc2)NC(=O)CSCCNC(=O)CNC(=O)[C@H](Cc2ccccc2)N(C)C(=O)[C@H](CC(C)C)NC(=O)[C@H](Cc2c[nH]c3ccccc23)NC1=O (cyclo(FVPVLWL[NMeF]G[NHCH2CH2SCH2CO]))", "Human immunodeficiency virus 1", 6.02]
]}

Report pEC50 for COC(=O)[C@H]1NC(=O)[C@H](C)NC(=O)[C@H](Cc2ccccc2)N(C)C(=O)[C@H](CC(C)C)NC(=O)[C@H](CCC2CCCCC2)NC(=O)[C@H](CC(C)C)NC(=O)[C@H](C(C)C)NC(=O)[C@]2(C)CCCN2C(=O)[C@H](C(C)C)NC(=O)[C@H](Cc2ccccc2)NC(=O)CSC1(C)C ({CH2CO}-FV[αMeP]VL[hCha]L[NMeF]A[Pen]-OMe; thioether N-10) please.
7.43
